Values were extracted from ChEMBL document CHEMBL1155097.

# Test system: A549
# EXPERIMENT_SUMMARY: Growth inhibition of human A549 cells after 72 hrs by SRB assay
# Assay type: functional
# PROTOCOL_CONDITIONS: A549, 72 h
MEASURED_ENDPOINT: GI50 (nM)

Consider the following illustrative entries.
COMPOUND | TARGET_OF_ASSAY | MEASURED_ENDPOINT | RESULT
COc1cccc2c1C(=O)c1c(O)c3c(c(O)c1C2=O)C[C@@](O)(C(=O)CO)C[C@@H]3O[C@H]1C[C@H](N)[C@H](O)[C@H](C)O1 (stereo in doubt) [DOXORUBICIN] | A549 | GI50 | 160
CN(C)CCCCCN(C)C1=Nc2ccccc2C(CC(=O)NCc2ccccc2)N1c1ccc(-c2ccccc2)cc1 (stereo not drawn) | A549 | GI50 | 170
COC(=O)CC1c2ccccc2N=C(Nc2ccc(-c3ccccc3)cc2)N1CCCCCN (stereo not drawn) | A549 | GI50 | 2900
COC(=O)CC1c2ccccc2N=C(NCCCCCNC(=O)OC(C)(C)C)N1c1ccc(-c2ccccc2)cc1 (stereo not drawn) | A549 | GI50 | 3830
CC(C)(C)OC(=O)NCCCCCNC1=Nc2ccccc2C(CC(=O)NCc2ccccc2)N1c1ccccc1 (stereo not drawn) | A549 | GI50 | 7740

1: Cc1ccc(S(=O)(=O)Nc2ccc(CNC(=O)CC3c4ccccc4N=C(N(C)C)N3c3ccccc3)cc2)cc1 (stereo not drawn)
2: O=C(CC1c2ccccc2N=C(N2CCCCC2)N1c1ccccc1)NCc1ccc(NS(=O)(=O)c2ccc(F)cc2)cc1 (stereo not drawn)
Query :: Would you mind telling me which has the lower recorded GI50 between 1 and 2 ? State the label of the item chosen.
Result :: 2
(2: 1930 nM, 1: 14300 nM)
